assay: qHTS assay to identify small molecule antagonists of the thyroid receptor (TR) signaling pathway (AID 743065); settings: GH3.TRE-Luc, T3-stimulated luciferase inhibition, 23.5 h; series mostly up to 70.3 µM; also: nearly all actives have a fitted effect of over 55% in size
Results filed as inconclusive are left out. The source made the active and inactive calls. Calls follow the shape of the dose curve; as a rule, active = well fitted inhibition curve with a large enough effect in the repeat runs; inconclusive = weak or mixed curves; inactive = no such curve, though single readings can be large or run the other way.
Hello, when you answer, please use one of the following outcomes: T = active, F = inactive

Lookup: How did this test come out for `CCON=O` ?
Found: F

Lookup: Continue with CC[C@H]1[C@@H]2C[C@H]3[C@@H]4N(C)c5ccccc5[C@]45C[C@@H](C2[C@H]5O)N3[C@@H]1O (some centres not stated)
Found: F

Lookup: Also, `CN1CCCC(=C(c2cccs2)c2cccs2)C1` please.
Found: F

Lookup: Also CCC(N)Cc1c[nH]c2ccccc12 (configuration not stated) ?
Found: F

Lookup: # iterate: `COC1=CC=C2[C@H]3Cc4ccc(OC)c5c4[C@@]2(CCN3C)[C@H]1O5`
Found: F

More entries:
Lookup: Name the outcome recorded for C#CCN1CC(=O)N(COC(=O)C2C(C=C(C)C)C2(C)C)C1=O (configuration not stated) in the assay.
Found: F

Lookup: Next molecule: OC(c1ccccc1)(c1ccccc1)C1CN2CCC1CC2 (configuration not stated)
Found: T

---

molecular target: Aromatase (Homo sapiens) (UniProt P11511); assay: qHTS assay to identify aromatase inhibitors (AID 743083); conditions: MCF-7 aro ERE, testosterone-driven ERE luciferase, 24 h; series mostly up to 70.3 µM; also: nearly all actives have a fitted effect of over 55% in size
Sequence (P11511 whole entry, looked up): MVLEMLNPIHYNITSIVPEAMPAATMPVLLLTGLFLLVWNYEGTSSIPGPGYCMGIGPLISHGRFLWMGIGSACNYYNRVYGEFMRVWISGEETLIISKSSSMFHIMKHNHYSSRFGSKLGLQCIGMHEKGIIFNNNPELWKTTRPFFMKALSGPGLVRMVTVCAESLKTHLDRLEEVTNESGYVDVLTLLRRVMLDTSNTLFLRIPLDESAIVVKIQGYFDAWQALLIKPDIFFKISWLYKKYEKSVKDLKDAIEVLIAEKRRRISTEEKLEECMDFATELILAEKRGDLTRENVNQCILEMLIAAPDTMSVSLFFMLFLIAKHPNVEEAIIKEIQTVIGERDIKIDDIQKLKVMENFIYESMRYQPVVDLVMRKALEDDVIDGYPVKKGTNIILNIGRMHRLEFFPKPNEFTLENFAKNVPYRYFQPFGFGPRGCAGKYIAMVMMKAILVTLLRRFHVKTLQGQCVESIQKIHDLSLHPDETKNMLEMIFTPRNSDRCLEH
Results filed as inconclusive are left out. Activity calls are given as the source filed them. Calls come from the whole dose curve; as a rule, active = well fitted inhibition curve with a large enough effect in the repeat runs; inconclusive = weak or mixed curves; inactive = no such curve, though single readings can be large or run the other way.
READOUT LABEL: outcome

Some molecules with recorded outcome:
Lookup: Could you share which outcome value was measured for `C[C@]12CC[C@@H]3c4ccc(OC(=O)N(CCCl)CCCl)cc4CC[C@H]3[C@@H]1CC[C@@H]2OP(=O)(O)O` ?
Found: inactive

Lookup: And what about the molecule CC(C)(C)OCC1CO1 (configuration not stated) ?
Found: inactive

Lookup: Now this one: `CCN(CC)CCO[C@H]1CC[C@@]2(C)C(=CC[C@@H]3[C@@H]2CC[C@]2(C)C(=O)CC[C@@H]32)C1`
Found: inactive

Lookup: Record: `C[N+](C)(C)CCCCCCCCCC[N+](C)(C)C`
Found: inactive

Lookup: What do you have for `Oc1c(Cl)cc(Cl)cc1Cl` ?
Found: inactive

Lookup: Same question for `Cc1ccc([N+](=O)[O-])cc1N` please.
Found: inactive

Lookup: Field entry: C1=CC2C3C=CC(C3)C2C1 (configuration not stated)
Found: inactive

Lookup: Param item: `COc1ccc2c3c1O[C@H]1C(=O)CC[C@H]4[C@@H](C2)N(C)CC[C@]314`
Found: inactive

Lookup: Entry `CCC(=O)O[C@]1(c2ccccc2)CCN(C)C[C@H]1C` please
Found: inactive

Lookup: // repeat for C#CCN1CC(=O)N(COC(=O)C2C(C=C(C)C)C2(C)C)C1=O (configuration not stated) and report
Found: inactive

Further cases:
Lookup: Which outcome value belongs to CCNC1(c2cccs2)CCCCC1=O (configuration not stated) ?
Found: inactive

Lookup: Now the same for `CCOc1ccc2c3c1O[C@H]1[C@@H](O)C=C[C@H]4[C@@H](C2)N(C)CC[C@@]341`
Found: inactive

---

experiment: qHTS assay to test for compound auto fluorescence at 590 nm (red) in HEK293 cell free culture (AID 720683); conditions: cell-free medium autofluorescence, Ex540/Em590 red; series mostly up to 46 µM
Activity calls are given as the source filed them. Calls come from the whole dose curve; as a rule, active = well fitted curve in the direction sought with a large enough effect in the repeat runs; inconclusive = weak or mixed curves; inactive = flat fitted curve, though single readings scatter.
READOUT LABEL: outcome

These recorded examples may help you get a feel for the data.
Lookup: Reported outcome, compound `COC(=O)[C@H]1[C@@H](OC(=O)c2ccccc2)C[C@@H]2CC[C@H]1N2C` : ____
Found: inactive

Lookup: What would you report for `O=C(NC(=O)c1c(F)cccc1F)Nc1ccc(Cl)c(Oc2ncc(C(F)(F)F)cc2Cl)c1` ?
Found: inactive

Lookup: Now the same for `CCN(CC)C(=O)N[C@H]1C[C@@H]2c3cccc4[nH]cc(c34)C[C@H]2N(C)C1`
Found: inactive

Lookup: Here is the next compound: `C=C[C@H]1CN2CC[C@H]1C[C@@H]2[C@@H](O)c1ccnc2ccccc12`
Found: inactive

Now look at this one.
Lookup: Consider the compound `O=C1C=C2C=C[C@@H]3C[C@@]2(O1)[C@H]1CCCCN31` and give its measured outcome.
Found: inactive
